Measured phospho-S6 immunofluorescence (z-score), listed per entry.
# Test system: MDA-MB-468
# methodSummary: phospho-S6 immunofluorescence (DAPI-normalised), per-plate z-score; higher = higher phospho-S6 signal (less pathway suppression)
# assayConditions: co-treatment: GDC0941 450 nM; 24 h
# respond with the number and nothing more

[
  {
    "compound": "COCCCN1CCC(NC(=O)c2cc(Cl)c(N)c3c2OCC3)CC1 [Prucalopride] (compound 10 µM)",
    "valueReported": 0.54
  },
  {
    "compound": "CC1CCN(CC[C@H]2CCCN2S(=O)(=O)c2cccc(O)c2)CC1 (compound 10 µM)",
    "valueReported": 0.86
  }
]

IN: Please report phospho-S6 immunofluorescence (z-score) for the following compound: CCCN(CCc1cccs1)[C@H]1CCc2c(O)cccc2C1 [Rotigotine] (compound 10 µM)
OUT: 0.53

IN: Identify phospho-S6 immunofluorescence (z-score) associated with the compound CCCC(=O)OC(CNC(C)(C)C)COc1nsnc1N1CCOCC1 (racemic) [(RS)-Butyryltimolol] (compound 10 µM)
OUT: 0.09

---

# System: MDA-MB-468
# methodSummary: phospho-S6 immunofluorescence (DAPI-normalised), per-plate z-score; higher = higher phospho-S6 signal (less pathway suppression)
# assayConditions: co-treatment: lapatinib 1 uM; 24 h
Structures can show the parent of a compound that is named as a salt.
Short version: phospho-S6 immunofluorescence (z-score) at least 0.08 is y, less is n.

Study these solved cases before continuing.
[
  {
    "compound": "CN(C)CC1CCOC1(c1ccccc1)c1ccccc1 (stereo not drawn) [AVex-73 hydrochloride] (compound 10 µM)",
    "experimentalSystem": "MDA-MB-468",
    "answerLabel": "n"
  },
  {
    "compound": "CCNC(=O)[C@@H]1CCCN1C(=O)[C@H](CCCNC(=N)N)NC(=O)[C@H](CC(C)C)NC(=O)[C@@H](COC(C)(C)C)NC(=O)[C@H](Cc1ccc(O)cc1)NC(=O)[C@H](CO)NC(=O)[C@H](Cc1c[nH]c2ccccc12)NC(=O)[C@H](Cc1cnc[nH]1)NC(=O)[C@@H]1CCC(=O)N1 [Buserelin (Acetate)] (compound 10 µM)",
    "experimentalSystem": "MDA-MB-468",
    "answerLabel": "y"
  },
  {
    "compound": "CC(=O)OCC(=O)[C@@]1(O)CC[C@H]2[C@@H]3CCC4=CC(=O)CC[C@]4(C)[C@H]3[C@@H](O)C[C@@]21C [Hydrocortisone (acetate)] (compound 10 µM)",
    "experimentalSystem": "MDA-MB-468",
    "answerLabel": "y"
  },
  {
    "compound": "COC(=O)[C@H](c1ccccc1Cl)N1CCc2sccc2C1 [Clopidogrel (hydrogen sulfate)] (compound 10 µM)",
    "experimentalSystem": "MDA-MB-468",
    "answerLabel": "n"
  }
]

IN: Threshold query (phospho-S6 immunofluorescence (z-score) >= 0.08) on C#CCOc1ccc2c(c1)c(-c1ccc(C(C)C)cc1)nc(=O)n2C(C)C [Calcium-Sensing Receptor Antagonists I] (compound 10 µM)
OUT: n

IN: // inclusive: phospho-S6 immunofluorescence (z-score) at least 0.08? input: Cc1c(C(=O)NN2CCCCC2)nn(-c2ccc(Cl)cc2Cl)c1-c1ccc(I)cc1 (compound 10 µM)
OUT: n
